Data origin, for the record: patent US7534763B2

experiment: Dog pharmacokinetic study (iv and sc, solution vehicles); assay type: in vivo; details: beagle, plasma, sc, 67 ug/kg; dog, subcutaneous 67 μg/kg, Tables 6A-6C (vehicle 0.2 M Tris, pH 8.0)
Where a SMILES comes first, the peptide text is derived from it. [ ]: non-standard residue; d: D form. The star is where a group is joined. ξ: configuration not given here. Ala(6-(2-MePh)pyridin-3-yl) = Cc1ccccc1-c1ccc(C[C@H](N)C(=O)O)cn1; Phe(4-(2-Et-4-HO-Ph)) = CCc1cc(O)ccc1-c1ccc(C[C@H](N)C(=O)O)cc1; ξαMePhe(2-F) = CC(N)(Cc1ccccc1F)C(=O)O; ξαMeP = CC1(C(=O)O)CCCN1; Moc = COC(=O)*
PROPERTY: MRT

{"columns": ["MOLECULE", "ASSAY_VALUE"],
 "data": [
  ["CCc1cc(O)ccc1-c1ccc(C[C@H](NC(=O)[C@H](CC(=O)O)NC(=O)[C@H](CO)NC(=O)[C@@H](NC(=O)C(C)(Cc2ccccc2F)NC(=O)[C@@H](NC(=O)CNC(=O)[C@H](CCC(=O)O)NC(=O)C2(C)CCCN2C(=O)[C@H](Cc2c[nH]cn2)NC(=O)OC)[C@@H](C)O)[C@@H](C)O)C(=O)N[C@@H](Cc2ccc(-c3ccccc3C)nc2)C(N)=O)cc1 (stereo partly shown) [SEQ ID NO: 158] (Moc-H[ξαMeP]EGT[ξαMePhe(2-F)]TSD[Phe(4-(2-Et-4-HO-Ph))][Ala(6-(2-MePh)pyridin-3-yl)]-NH2)", "5.2 h"]
]}
